// data source = ChEMBL document CHEMBL1201862

Tested on: HOP-92
Measurement Protocol: NCI tumour cell line growth inhibition, 48 h
Activity calls are given as the source filed them. Rule as the data show it: active = GI50 up to about 1.1 µM and inactive = higher.
Measure: GI50

Worked examples, 5 compounds total:
Value wanted: GI50 (HOP-92) of entry COC(=O)C1=CC2C=CC(C1C(=O)OC)C1C(C(=O)OC)=C(C(=O)OC)C(C(=O)OC)=C(C(=O)OC)C21OC (stereo not drawn)
> 100 µM (inactive)

Value wanted: GI50 (HOP-92) of entry O=[N+]([O-])c1ccc(Nc2cccc3c4cc[nH]c(-c5ccccc5)c-4nc23)c([N+](=O)[O-])c1
> 100 µM (inactive)

Value wanted: GI50 (HOP-92) of entry COc1cc(/C=C2\CCC(C)C3=C2NC(=S)NC3c2cc(OC)c(OC)c(OC)c2)cc(OC)c1OC (stereo not drawn)
> 100 µM (inactive)

Value wanted: GI50 (HOP-92) of entry COc1ccc(-c2nc3ccccc3c(=S)n2OC(C)=O)cc1
> 25 µM (inactive)

Value wanted: GI50 (HOP-92) of entry O=[N+]([O-])c1ccc(Cl)c(/C=N/C23CC4CC(CC(C4)C2)C3)c1
> 10 µM (inactive)

Further cases:
Value wanted: GI50 (HOP-92) of entry COC(=O)C1=C(c2cc(OC)c(OC)c(OC)c2)OC(c2cc(OC)c(OC)c(OC)c2)C1 (stereo not drawn)
10.7 µM (inactive)

Value wanted: GI50 (HOP-92) of entry Cc1cnc2nc(-c3ccc(F)cc3)cc(O)c2c1
33.2 µM (inactive)

Value wanted: GI50 (HOP-92) of entry NCCNCCCCCCNC(=O)c1cccc2cc3ccccc3nc12
2.24 µM (inactive)

Value wanted: GI50 (HOP-92) of entry CCOC(=O)C(=O)Nc1ccccc1C(C)C
> 100 µM (inactive)

Value wanted: GI50 (HOP-92) of entry N#C/C(C(=O)Nc1ccc(Cl)cc1)=C(/N)N1CCOCC1
> 100 µM (inactive)

Value wanted: GI50 (HOP-92) of entry Nc1ccc(C(=O)NN2C(=O)C(Cl)C2c2ccc(O)cc2)cc1 (stereo not drawn)
24.5 µM (inactive)

Value wanted: GI50 (HOP-92) of entry C/C(=N\Nc1nc2ccccc2[nH]1)c1cc2ccccc2cn1
0.0755 µM (active)

Value wanted: GI50 (HOP-92) of entry Cc1ccc(N2C(=O)/C(=C3\Sc4c(nc(C)n(C)c4=O)N3c3ccccc3)SC2=S)cc1
33.8 µM (inactive)

Value wanted: GI50 (HOP-92) of entry Nc1nc(N)c2nc(CNc3ccc(C(=O)O)cc3)[nH]c2n1
> 100 µM (inactive)

Value wanted: GI50 (HOP-92) of entry Cc1ccccc1NC(=S)N/N=C1\C(=O)Nc2ccccc21
> 100 µM (inactive)
